Reported activity at 10 µM values follow for various molecules
# Test system: SF-268
# Type: cell-based
# Condition context: Homo sapiens, one dose 10^-5 M, 48 h, read-out: % growth
Give the value in % but do not write % after it.

[
  {
    "Molecule": "N=C(NN=Cc1ccc(Cl)cc1)c1c(N)nc(S)nc1-c1ccc(Cl)cc1Cl [Compound 4n]",
    "Unit abbreviation": "%",
    "Number": 100
  },
  {
    "Molecule": "COc1ccc(C=NNC(=N)c2c(N)nc(S)nc2-c2ccc(Cl)cc2)cc1 [Compound 4j]",
    "Unit abbreviation": "%",
    "Number": 113
  },
  {
    "Molecule": "N=C(NN=Cc1ccc(Br)cc1)c1c(N)nc(S)nc1-c1ccc(Cl)cc1Cl [Compound 4q]",
    "Unit abbreviation": "%",
    "Number": 105
  },
  {
    "Molecule": "CN(C)c1ccc(-c2nc(S)nc(N)c2C(=N)NN=Cc2ccc(Br)cc2)cc1 [Compound 4e]",
    "Unit abbreviation": "%",
    "Number": 101
  },
  {
    "Molecule": "CN(C)c1ccc(-c2nc(S)nc(N)c2C(=N)NN=Cc2ccc(Cl)cc2)cc1 [Compound 4b]",
    "Unit abbreviation": "%",
    "Number": 97.5
  }
]

[ask] Tell me the measured activity at 10 µM of CN(C)c1ccc(-c2cc([N+](=O)[O-])ccc2C=NNC(=N)c2cnc(S)nc2N)cc1 [Compound 4c] , please.
[reply] 87.8

[ask] Now this one: N#Cc1c(N)nc(S)nc1-c1ccc(Cl)cc1Cl [Compound 1c]
[reply] 51

[ask] Now this one: CN(C)c1ccc(-c2nc(S)nc(N)c2C(=N)NN=Cc2ccccc2)cc1 [Compound 4a]
[reply] 104

[ask] Now this one: Nc1nc(S)nc(-c2ccc(Cl)cc2)c1-c1ncn[nH]1 [Compound 5b]
[reply] 96.7

[ask] Now this one: N=C(NN=Cc1ccc([N+](=O)[O-])cc1)c1c(N)nc(S)nc1-c1ccc(Cl)cc1Cl [Compound 4o]
[reply] 94.9

[ask] Now this one: COc1ccc(C=NNC(=N)c2c(N)nc(S)nc2-c2ccc(Cl)cc2Cl)cc1 [Compound 4p]
[reply] 104
